Each recorded value in this set is attributed to paper PMC3983359.

Experiment: Mouse liver microsome stability
Assay type: in vitro ADME
Settings: mouse, liver microsomes, microsomal stability (T1/2, min), mouse liver microsomes, with NADPH
observed.property: half-life (min)
One number for each entry, in min.

Would you mind telling me what half-life value was observed for `COc1ccnc(NC(=S)N2CCN(c3ncc(C(F)(F)F)cc3Cl)CC2)c1` ?
49.5

----------
Target: B. subtilis Sfp-PPTase (Bacillus subtilis, UniProt P39135)
Sequence (P39135 whole entry): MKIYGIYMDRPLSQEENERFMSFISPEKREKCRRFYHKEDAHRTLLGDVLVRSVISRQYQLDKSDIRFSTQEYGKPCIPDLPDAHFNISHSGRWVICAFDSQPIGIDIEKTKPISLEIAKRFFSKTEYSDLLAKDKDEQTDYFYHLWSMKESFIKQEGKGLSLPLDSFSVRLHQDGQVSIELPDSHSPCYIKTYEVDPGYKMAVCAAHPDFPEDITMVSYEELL
Experiment: Sfp-PPTase qHTS assay
Format: biochemical
Details: SAR discussion

smiles.entry | study.target | Sfp-PPTase inhibitory activity in words
Cc1ccnc(NC(=S)NCCN(C)c2cccc(C(F)(F)F)c2)c1 | B. subtilis Sfp-PPTase (Bacillus subtilis, UniProt P39135) | lost all activity
Cc1ccnc(NC(=S)NCCNc2cccc(C(F)(F)F)c2)c1 | B. subtilis Sfp-PPTase (Bacillus subtilis, UniProt P39135) | lost all activity
